# Tested on: H. contortus larvae
# Method: H. contortus dose-response assay, larval development
# Parameters: species or system Haemonchus contortus
# Condition Info: Haemonchus contortus, 168 h, read-out: IC50, inhibition of H. contortus larval development
Assay Endpoint: IC50 (µM)
Number in µM, nothing else.

Problem: # return IC50 of CC(F)c1ncnc(NCCc2ccc(OC(F)(F)F)cc2)c1Cl (stereo not shown) (system: H. contortus larvae)
Result: 1.2
